Exercise: for every item that follows, state its recorded growth inhibition.
EXPERIMENT DESCRIPTION: NCI Yeast Anticancer Drug Screen. Data for the rad50 strain (AID 155);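 also: 0% = growth of vehicle-only cultures of the same strain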
CONDITION LABEL: S. cerevisiae rad50 strain growth inhibition, hits give high values; at 50.0 µM unless noted
The panel holds about 79,000 compounds, 15% with a hit somewhere; the sample as a whole holds those more often. Where a SMILES comes first, the peptide text is derived from it. The star is where a group is joined. Cbz = O=C(OCc1ccccc1)*
Please reply with the bare figure in % and do not write the unit itself.

What growth inhibition value was documented for this compound, OC(c1ccc(Cl)cc1)c1ccccn1 (stereo not given) ? 1.7

`Nc1c(I)cc(I)c(C(=O)O)c1I` , same question. -44

Cool, now `COCN(CCc1ccccc1)CCN(C)C` 1.4

`CCN(CC)C(=O)Oc1cccc(NC(=O)OC)c1` ? 16

And `O=C(N=C(Oc1ccccc1)Oc1ccccc1)N=C(Oc1ccccc1)Oc1ccccc1` ? 19.9

What do you get for `CC1(C)CNC[C@]2(C)OCCCO[C@@]3(C)CNCC(C)(C)NC(=O)[C@](C)(CNCC(C)(C)NC3=O)OCCCO[C@](C)(CNCC(C)(C)NC2=O)C(=O)N1` ? -33.2

Okay, and CC1(C)C2CCC1(C)C(/C=N/NC(N)=O)C2 (stereo not given) ? 5.4

Request: CCOC(=O)CCC(NC(=O)C(Cc1ccccc1)NC(=O)OCc1ccccc1)C(=O)OCC (stereo not drawn) (Cbz-Phe-Glu(OEt)-OEt; configuration not given here) 3.9

Param item: `CC(C)COC(=O)c1ccccc1` 35

Consider next the compound `Cc1cccc(C)c1NC(=S)N/C=C(\C#N)C(N)=O` in the same way. -53.2

---

EXPERIMENT DESCRIPTION: NCI Yeast Anticancer Drug Screen. Data for the cln2 rad14 strain (AID 165);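 also: 0% = growth equal to vehicle treated cultures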
CONDITION LABEL: S. cerevisiae cln2 rad14 strain; at 50.0 µM unless noted
The panel holds about 79,000 compounds, 15% with a hit somewhere; the sample as a whole holds those more often. The source made the active and inactive calls. Cut-off read from the data, not from the text of the source: active = growth inhibition above about 70%; inactive = the rest.
Please reply with one of these outcomes: active, inactive

Status in this test for `Cc1cc2cccc(Cl)c2nc1C(=O)c1ccccc1` ? inactive

Subsequent entry: `O=[N+]([O-])c1ccc(NN=C2CCCCC2)c([N+](=O)[O-])c1` inactive

What about `CCOc1ccc(NC(=O)C(=O)CC(=O)c2c(C)n([O-])c3ccccc3[n+]2=O)cc1` ? inactive

Subsequent entry: N=C(N)CCNC(=O)C1CCC(N)=N1 (centres undefined) inactive

One more compound: `CN(C)C(n1cc2c(c1)-c1ccc(Cl)cc1C(c1ccccc1F)=NC2)n1cc2c(c1)-c1ccc(Cl)cc1C(c1ccccc1F)=NC2` inactive

Try the compound `CN(C)c1ccccc1C(=O)N/N=C\c1ccc(-c2ccccc2)cc1` inactive

Would you mind doing `CCOC(=O)CC(=O)CC(=O)OCC` as well? inactive

Also need `O=C(Nc1ccc2ccccc2c1)c1ccccc1Cl` , thanks. inactive

And what about the compound `COC(=O)/C=C(\C(=O)OC)N1CCCCC1` ? inactive

Next record, please: `CCOc1ccccc1/C=C1\N=C(c2ccc([N+](=O)[O-])cc2)OC1=O` inactive

Repeat with `C(/C=N/NC1=NCCN1)=N\NC1=NCCN1` inactive

Input `CCCCN(C#N)CCCC` inactive

Also `O=C(O)C(Cc1cccs1)C(=O)O` , if possible. inactive

Item: `COc1ccc(C2CC(=O)N(c3ncccn3)C(=O)C2)cc1` inactive

`C=CC(=O)OCCOCCCC` , same question. inactive

What would you report for COCN1C(=N)C(C(=O)OC(C)(C)C)=C2C=C(O)C=CC21C (centres undefined) ? inactive

Queued: CCCCOC(=O)C1CN2C=CC=NC2=NC1(C(F)(F)F)C(F)(F)F (centres undefined) inactive

// next record `Cc1cc(C)c(CC(=O)c2ccccc2)c(C)c1` inactive

Follow-up item: `CC(=O)CCn1[nH]c(=O)c2ccccc2c1=O` inactive

And for COc1cc(Br)c(CC(NC=O)c2ccc(OC)c(OC)c2OC)cc1OC (centres undefined) ? inactive

Try the compound `COc1ccccc1/C=C1\C(=O)N(C(=O)c2ccc(NC(C)=O)cc2)N=C1C` inactive

Param item: `CCCCCC[P+](c1ccccc1)(c1ccccc1)c1ccccc1` active

Now give it for `O=C1c2ccccc2S(=O)(=O)c2c1cccc2[N+](=O)[O-]` too. inactive

What about `Cc1cc(N(CCC#N)CCC#N)ccc1/C=C1/CN(N2C(=O)/C(=C/c3ccc(N(CCC#N)CCC#N)cc3C)N=C2c2ccccc2)C(c2ccccc2)=N1` ? inactive

Check COc1cc(C2c3cc4c(cc3OC3(O)CCCC23)OCO4)cc(OC)c1OC (centres undefined) too. inactive

Try `CCOC(=O)C1(Cc2ccccc2)Cc2cc3c(cc2C1)CCC3` next. inactive

Now try CC1=CCC(CC2CO2)C1(C)C (centres undefined) . inactive

Please do the same for CC(=O)NC(CCC(C)C)C(=O)O (centres undefined) as well. inactive

Try the compound `CC(=O)CC(=O)Nc1ccc(OS(N)(=O)=O)cc1` inactive

Request: `C1CCC2=NCCCN2CC1` inactive

Continue with CC(NCCN1CCOCC1)c1ccc2ccccc2c1 (centres undefined) inactive

Likewise for `N#Cc1ccc(Nc2cnc3cc(N)ccc3n2)cc1` ? inactive

Try this compound too: `O=C(O)Cn1c(=O)[nH]c(=O)c2[nH]cnc21` inactive

// same read-out, input: CCC12C=CCN3CC[C@@]4(c5cc([C@@]6(C(=O)OC)C[C@@H]7CN(CCc8c6[nH]c6ccccc86)C[C@](O)(CC)C7)c(OC)cc5N(C)[C@H]4[C@@](O)(C(=O)NCCCCCCCCCCCC(=O)O)[C@@H]1O)C32 (some centres undefined) inactive

Would you kindly repeat that for `O=c1c2cc3c(=O)n4c(cc(-c5ccccc5)c5cc(Cl)ccc54)nc3cc2nc2cc(-c3ccccc3)c3cc(Cl)ccc3n12` ? inactive

What would you report for CC(N1CCS(=O)(=O)CC1)P(=O)(O)O (centres undefined) ? inactive

Item: `CC(=O)O/N=C(\C(c1ccccc1)c1ccccc1)C1c2ccccc2-c2ccccc21` active

Also need `CN(C)c1ccc(C(c2ccc(C(c3ccc(N(C)C)cc3)c3ccc(N(C)C)cc3)cc2)c2ccc(N(C)C)cc2)cc1` , thanks. inactive

Repeat for the following compound: `Cc1nc(C(Cl)(Cl)Cl)[nH]c(=O)c1SCCO` inactive

For `C[N+]1(CCC(=O)c2ccccc2)CCOCC1` then? inactive

Could you do the same for `O=S(=O)(O)c1cc(N=[N+]([O-])c2ccc(N=Nc3ccccc3)cc2S(=O)(=O)O)ccc1/C=C/c1ccc(N=[N+]([O-])c2ccc(N=Nc3ccccc3)cc2S(=O)(=O)O)cc1S(=O)(=O)O` , please? inactive

And what about the compound `Cc1cc(=O)n2nc(CCl)sc2n1` ? inactive

Request: `CC(=O)c1ccc([N+](=O)[O-])[nH]1` inactive

For `O=c1cc(-c2ccccc2)[nH]c2c(F)ccc(F)c12` then? inactive

---

EXPERIMENT DESCRIPTION: NCI Yeast Anticancer Drug Screen. Data for the sgs1 mgt1 strain (AID 161);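 also: 0% = growth of cultures given vehicle only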
CONDITION LABEL: S. cerevisiae sgs1 mgt1 strain, hits give high values; at 50.0 µM unless noted
The panel holds about 79,000 compounds, 15% with a hit somewhere; the sample as a whole holds those more often.
For each of the compounds below, state its growth inhibition.
Report the value in % with no unit label.

Request the reported growth inhibition associated with `O=C(F)c1cccc2ccccc12` -1

Another compound to check: CC1CC(C)OC(c2ccccc2Cl)O1 (configuration not stated) 6.3

Further, for O=C1C2CCC2C(=O)N1c1ccc2ccccc2c1 (configuration not stated) ? 0.35

Now consider `Cc1c([N+](=O)[O-])cc(C(C)(C)C)c(OC(=O)c2ccccc2)c1[N+](=O)[O-]` and answer again. 41

Next up: `CCCCCCCCCCCCCCCCCCNC(=S)N/N=C/c1ccccc1[N+](=O)[O-]` -20.1

Here is the next compound: O=C(c1ccc(-c2ccccc2)cc1)C(O)c1ccc(-c2ccccc2)cc1 (configuration not stated) 2.65

How about CC12CCC(CC1(Cl)Cl)C2 (configuration not stated) ? 21.1

Would you kindly repeat that for `CC(=O)Nc1nc(SCc2ccccc2)c2[nH]cnc2n1` ? 0.6

Try this compound too: `CCOC(Cc1ccccc1)OCC` 18.4

Repeat for the following compound: `Cc1cc(N(CCCCl)CCCCl)ccc1C=Nc1cc(Cl)c(O)c(Cl)c1` 84.8

Try this compound too: CC(C)=CC(=O)CC1(C)CCC(c2ccoc2)O1 (configuration not stated) -11.6

CCOC(=O)C1=C(C)NC(c2ccco2)=C(C#N)C1c1cccc([N+](=O)[O-])c1 (configuration not stated) , same question. 66
